Test system: EKVX
METHOD_SUMMARY: NCI tumour cell line growth inhibition, 48 h
Activity calls are given as the source filed them. Cut-off read from the data, not from the text of the source: active = GI50 up to about 1.1 µM and inactive = higher.
MEASURE: GI50

For orientation, consider the following solved cases.
| COMPOUND | GI50 |
| --- | --- |
| COc1ccc(-c2cc(=O)c3ccc(O)cc3o2)cc1OC | 43.7 µM (inactive) |
| CC1(C)C2C/C(=C\c3ccccc3)C(=O)C1C2 (stereo unspecified) | 86.9 µM (inactive) |
| Cc1ccc(NC(=O)C(=O)Cc2nc3ccccc3o2)c(C)c1 | > 100 µM (inactive) |
| CS(=O)(=O)c1nc(N)nc2nc[nH]c12 | > 100 µM (inactive) |
| O=S(O)CCCCSSCc1ccccc1CSSCCCCS(=O)O | 22.2 µM (inactive) |

// query Look up GI50 for this compound: NNC(=O)c1ccccc1NC(=O)/C(=C/c1ccccc1)NC(=O)c1ccccc1
// result > 100 µM (inactive)
